# credit: the NIST ThermoML archive (doi:10.1016/j.jct.2011.07.008)

details: 298.15 K; 101.33 kPa; Liquid; Pycnometric method
Here, each record is paired with measured mass density data.

>  <compound>
COCCO [2-methoxyethan-1-ol]

>  <mass density, kg/m3>
959.03

$$$$
>  <compound>
COCCOCCO [2-(2-methoxyethoxy)ethanol]

>  <mass density, kg/m3>
1014.39

$$$$
>  <compound>
CCOCCO [2-ethoxyethan-1-ol]

>  <mass density, kg/m3>
925.05

$$$$
>  <compound>
CCOCCOCCO [3,6-dioxa-1-octanol]

>  <mass density, kg/m3>
984.045

$$$$

* * *

experiment: refractive index (Na D-line) (dimensionless); details: 298.15 K; 101.33 kPa; Liquid; Standard Abbe refractometry
readout-name: refractive index

>  <molecule-smiles>
COCCOCCO

>  <readout-name>
refractive index

>  <measurement>
1.4245

$$$$
>  <molecule-smiles>
CCOCCOCCO

>  <readout-name>
refractive index

>  <measurement>
1.4253

$$$$
>  <molecule-smiles>
CCOCCO

>  <readout-name>
refractive index

>  <measurement>
1.4057

$$$$
>  <molecule-smiles>
COCCO

>  <readout-name>
refractive index

>  <measurement>
1.4003

$$$$
